conditions: in water, 318.15 K

COMPOUND_STRUCTURE_STRING: Cn1cnc2c1c(=O)[nH]c(=O)n2C
solubility (mole fraction): 0.00104

----------
conditions: in ethanol, 340.1 K

COMPOUND_STRUCTURE_STRING: Cn1c(=O)c2[nH]cnc2n(C)c1=O
solubility (mole fraction): 0.0083

----------
details: in water, 317.9 K

COMPOUND_STRUCTURE_STRING: Cn1c(=O)c2c(ncn2CCO)n(C)c1=O
solubility (mole fraction): 0.0099

----------
conditions: in ethanol, 336.8 K

COMPOUND_STRUCTURE_STRING: Cn1c(=O)c2c(ncn2CCO)n(C)c1=O
solubility (mole fraction): 0.0055

----------
conditions: in n-octanol, 338.4 K

COMPOUND_STRUCTURE_STRING: Cn1c(=O)c2c(ncn2CCO)n(C)c1=O
solubility (mole fraction): 0.0074

----------
conditions: in ethanol, 339.1 K

COMPOUND_STRUCTURE_STRING: Cn1c(=O)c2c(ncn2CCO)n(C)c1=O
solubility (mole fraction): 0.0065

----------
conditions: in water, 316.2 K

COMPOUND_STRUCTURE_STRING: Cn1c(=O)c2c(ncn2CCO)n(C)c1=O
solubility (mole fraction): 0.0086

----------
details: in water, 300.9 K

COMPOUND_STRUCTURE_STRING: Cn1c(=O)c2c(ncn2CCO)n(C)c1=O
solubility (mole fraction): 0.0039

----------
settings: in water, 337.6 K

COMPOUND_STRUCTURE_STRING: Cn1c(=O)c2[nH]cnc2n(C)c1=O
solubility (mole fraction): 0.0039

----------
conditions: in water, 303.4 K

COMPOUND_STRUCTURE_STRING: Cn1c(=O)c2c(ncn2CCO)n(C)c1=O
solubility (mole fraction): 0.0042

----------
details: in n-octanol, 337.5 K

COMPOUND_STRUCTURE_STRING: Cn1c(=O)c2[nH]cnc2n(C)c1=O
solubility (mole fraction): 0.0027

----------
conditions: in water, 326.2 K
QUANTITY_NAME: solubility (mole fraction)

COMPOUND_STRUCTURE_STRING: Cn1c(=O)c2[nH]cnc2n(C)c1=O
QUANTITY_NAME: solubility (mole fraction)
MEASURED_NUMBER: 0.0018

----------
conditions: in n-octanol, 322.3 K

COMPOUND_STRUCTURE_STRING: Cn1c(=O)c2[nH]cnc2n(C)c1=O
solubility (mole fraction): 0.001

----------
settings: in water, 347.3 K

COMPOUND_STRUCTURE_STRING: Cn1c(=O)c2c(ncn2CCO)n(C)c1=O
solubility (mole fraction): 0.0623

----------
details: in water, 313.15 K

COMPOUND_STRUCTURE_STRING: Cn1cnc2c1c(=O)[nH]c(=O)n2C
solubility (mole fraction): 0.00104

----------
conditions: in ethanol, 343.8 K
QUANTITY_NAME: solubility (mole fraction)

COMPOUND_STRUCTURE_STRING: Cn1c(=O)c2c(ncn2CCO)n(C)c1=O
MEASURED_NUMBER: 0.0081

----------
settings: in ethanol, 344.9 K
QUANTITY_NAME: solubility (mole fraction)

COMPOUND_STRUCTURE_STRING: Cn1c(=O)c2c(ncn2CCO)n(C)c1=O
QUANTITY_NAME: solubility (mole fraction)
MEASURED_NUMBER: 0.0086

----------
settings: in water, 298.15 K
QUANTITY_NAME: solubility (mole fraction)

COMPOUND_STRUCTURE_STRING: Cn1cnc2c1c(=O)[nH]c(=O)n2C
MEASURED_NUMBER: 0.00101

----------
conditions: in n-octanol, 330.2 K

COMPOUND_STRUCTURE_STRING: Cn1c(=O)c2[nH]cnc2n(C)c1=O
solubility (mole fraction): 0.0017

----------
conditions: in n-octanol, 293.15 K
QUANTITY_NAME: solubility (mole fraction)

COMPOUND_STRUCTURE_STRING: Cn1cnc2c1c(=O)[nH]c(=O)n2C
MEASURED_NUMBER: 0.000214

----------
conditions: in ethanol, 321.2 K

COMPOUND_STRUCTURE_STRING: Cn1c(=O)c2c(ncn2CCO)n(C)c1=O
solubility (mole fraction): 0.0016

----------
conditions: in ethanol, 342.4 K

COMPOUND_STRUCTURE_STRING: Cn1c(=O)c2c(ncn2CCO)n(C)c1=O
solubility (mole fraction): 0.0077

----------
conditions: in ethanol, 325.2 K

COMPOUND_STRUCTURE_STRING: Cn1c(=O)c2[nH]cnc2n(C)c1=O
solubility (mole fraction): 0.0036

----------
conditions: in n-octanol, 364.5 K

COMPOUND_STRUCTURE_STRING: Cn1c(=O)c2[nH]cnc2n(C)c1=O
solubility (mole fraction): 0.008

----------
conditions: in water, 312.5 K
QUANTITY_NAME: solubility (mole fraction)

COMPOUND_STRUCTURE_STRING: Cn1c(=O)c2c(ncn2CCO)n(C)c1=O
MEASURED_NUMBER: 0.0067

----------
conditions: in water, 301.6 K
QUANTITY_NAME: solubility (mole fraction)

COMPOUND_STRUCTURE_STRING: Cn1c(=O)c2c(ncn2CCO)n(C)c1=O
QUANTITY_NAME: solubility (mole fraction)
RESULT: 0.0041

----------
conditions: in water, 312.8 K
QUANTITY_NAME: solubility (mole fraction)

COMPOUND_STRUCTURE_STRING: Cn1c(=O)c2c(ncn2CCO)n(C)c1=O
QUANTITY_NAME: solubility (mole fraction)
RESULT: 0.0067

----------
details: in n-octanol, 355.3 K
QUANTITY_NAME: solubility (mole fraction)

COMPOUND_STRUCTURE_STRING: Cn1c(=O)c2[nH]cnc2n(C)c1=O
MEASURED_NUMBER: 0.0069

----------
settings: in n-octanol, 336.7 K
QUANTITY_NAME: solubility (mole fraction)

COMPOUND_STRUCTURE_STRING: Cn1c(=O)c2[nH]cnc2n(C)c1=O
QUANTITY_NAME: solubility (mole fraction)
MEASURED_NUMBER: 0.0025

----------
details: in water, 333.3 K

COMPOUND_STRUCTURE_STRING: Cn1c(=O)c2[nH]cnc2n(C)c1=O
solubility (mole fraction): 0.0026

----------
details: in water, 348.4 K
QUANTITY_NAME: solubility (mole fraction)

COMPOUND_STRUCTURE_STRING: Cn1c(=O)c2c(ncn2CCO)n(C)c1=O
RESULT: 0.0808

----------
settings: in water, 316.7 K

COMPOUND_STRUCTURE_STRING: Cn1c(=O)c2[nH]cnc2n(C)c1=O
solubility (mole fraction): 0.0009

----------
settings: in water, 343.1 K
QUANTITY_NAME: solubility (mole fraction)

COMPOUND_STRUCTURE_STRING: Cn1c(=O)c2[nH]cnc2n(C)c1=O
QUANTITY_NAME: solubility (mole fraction)
RESULT: 0.007

----------
conditions: in n-octanol, 333.2 K

COMPOUND_STRUCTURE_STRING: Cn1c(=O)c2c(ncn2CCO)n(C)c1=O
solubility (mole fraction): 0.0046

----------
conditions: in water, 310.6 K
QUANTITY_NAME: solubility (mole fraction)

COMPOUND_STRUCTURE_STRING: Cn1c(=O)c2[nH]cnc2n(C)c1=O
MEASURED_NUMBER: 0.0005

----------
settings: in water, 308.5 K
QUANTITY_NAME: solubility (mole fraction)

COMPOUND_STRUCTURE_STRING: Cn1c(=O)c2[nH]cnc2n(C)c1=O
QUANTITY_NAME: solubility (mole fraction)
MEASURED_NUMBER: 0.0004

----------
conditions: in water, 342 K

COMPOUND_STRUCTURE_STRING: Cn1c(=O)c2c(ncn2CCO)n(C)c1=O
solubility (mole fraction): 0.0447

----------
conditions: in water, 293.15 K

COMPOUND_STRUCTURE_STRING: Cn1cnc2c1c(=O)[nH]c(=O)n2C
solubility (mole fraction): 0.001

----------
details: in ethanol, 318.15 K

COMPOUND_STRUCTURE_STRING: Cn1cnc2c1c(=O)[nH]c(=O)n2C
solubility (mole fraction): 6.34e-05

----------
conditions: in water, 304.6 K
QUANTITY_NAME: solubility (mole fraction)

COMPOUND_STRUCTURE_STRING: Cn1c(=O)c2c(ncn2CCO)n(C)c1=O
MEASURED_NUMBER: 0.0048

----------
settings: in n-octanol, 323.2 K

COMPOUND_STRUCTURE_STRING: Cn1c(=O)c2c(ncn2CCO)n(C)c1=O
solubility (mole fraction): 0.0026

----------
conditions: in ethanol, 313.15 K
QUANTITY_NAME: solubility (mole fraction)

COMPOUND_STRUCTURE_STRING: Cn1cnc2c1c(=O)[nH]c(=O)n2C
MEASURED_NUMBER: 5.49e-05
